Assay method text: in vivo
Condition details: mouse, po
# label = 1 (yes) if LD50 < 80 mg/kg else 0 (no)

Task: Bench note: check whether CC=CC=CC(=O)OC(C)OC(=O)Cc1ccccc1Nc1c(Cl)cccc1Cl (stereo not shown) [Compound 21] shows LD50 below 80 mg/kg
Result: 0 (no)

Task: LD50 under 80 mg/kg? Item: CC(=O)OC(C)OC(=O)Cc1ccccc1Nc1c(Cl)cccc1Cl (stereo not shown) [Compound 18]
Result: 0 (no)

Task: Field: below-cutoff. Rule: recorded LD50 strictly less than 80 mg/kg. Subject: CC=CC=CC(=O)OCCOC(=O)Cc1c(C)n(C(=O)c2ccc(Cl)cc2)c2ccc(OC)cc12 [Compound 6]
Result: 0 (no)

---

Answer each item with its documented ED50.
Test system: carrageenan edema
Assay method text: inhibition test of carrageenan edema employing a foot-pad edema method
Format: in vivo, male Wister rats
Condition details: Rattus norvegicus; male Wister rats, foot-pad edema; read-out: ED50 for inhibition for carrageenan edema
Text: Anti-inflammatory action was investigated according to the method of Winter et al [cf. Pro. Soc. Exp. Biol. Med., 111, 544 (1962)] by the inhibition test of carrageenan edema employing a foot-pad edema method using carrageenan as an irritating agent and male Wister rats weighing 130 to 170 g.
Numbers only, in mg/kg.

Study these solved cases before continuing.
Compound | ED50 (mg/kg)
COc1ccc2c(c1)c(CC(=O)OCOC(=O)C=C(C)C)c(C)n2C(=O)c1ccc(Cl)cc1 [Compound 2] | 6
COc1ccc2c(c1)c(CC(=O)OC(C)OC(C)=O)c(C)n2C(=O)c1ccc(Cl)cc1 (stereo not shown) [Compound 8] | 6

Task: Find the measured ED50: item CC(C)=CC(=O)OCCOC(=O)Cc1ccccc1Nc1c(Cl)cccc1Cl [Compound 17] , target or system carrageenan edema.
Result: 30

---

Assay method text: in vivo
Condition details: rat, po
For each record, write down the corresponding TD50 at 6 h.
Numbers only, in mg/kg.

Compound | Readout number
C/C=C/C(=O)OC(C)OC(=O)Cc1c(C)n(C(=O)c2ccc(Cl)cc2)c2ccc(OC)cc12 (stereo not shown) | 20
CC=CC=CC(=O)OCCOC(=O)Cc1c(C)n(C(=O)c2ccc(Cl)cc2)c2ccc(OC)cc12 | 40
CC(C)=CC(=O)OCCOC(=O)Cc1ccccc1Nc1c(Cl)cccc1Cl | 30

// switching to the query compound
Task: Which TD50 at 6 h value belongs to COc1ccc2c(c1)c(CC(=O)OCCOC(=O)C=C(C)C)c(C)n2C(=O)c1ccc(Cl)cc1 ?
Result: 40

---

Assay method text: Rate of hydrolysis in rat plasma
Type: in vitro ADME
Condition details: in 1 ml of plasma rat (37° C., incubation for 1 hr)
I'd be grateful if you could share measured metabolised at 1 h for these entries.
Numbers only, in %.

Worked examples follow.
Compound | Quantity kind | Readout number
C/C=C/C(=O)OC(C)OC(=O)Cc1c(C)n(C(=O)c2ccc(Cl)cc2)c2ccc(OC)cc12 (stereo not shown) | metabolised at 1 h | 88.2
CC=CC=CC(=O)OCCOC(=O)Cc1c(C)n(C(=O)c2ccc(Cl)cc2)c2ccc(OC)cc12 | metabolised at 1 h | 69
COc1ccc2c(c1)c(CC(=O)OC(C)OC(C)=O)c(C)n2C(=O)c1ccc(Cl)cc1 (stereo not shown) | metabolised at 1 h | 99.8
COc1ccc2c(c1)c(CC(=O)OCOC(=O)C=C(C)C)c(C)n2C(=O)c1ccc(Cl)cc1 | metabolised at 1 h | 78
CC=CC=CC(=O)OC(C)OC(=O)Cc1ccccc1Nc1c(Cl)cccc1Cl (stereo not shown) | metabolised at 1 h | 78.2

For each entry beneath this line, provide reported metabolised at 1 h.
1. C/C=C/C(=O)OCOC(=O)Cc1c(C)n(C(=O)c2ccc(Cl)cc2)c2ccc(OC)cc12
2. COc1ccc2c(c1)c(CC(=O)OCC(=O)O)c(C)n2C(=O)c1ccc(Cl)cc1 [Acemethacin, acemethacin, reference compound]
3. C/C=C/C(=O)OCCOC(=O)Cc1c(C)n(C(=O)c2ccc(Cl)cc2)c2ccc(OC)cc12
4. COc1ccc2c(c1)c(CC(=O)OCCOC(=O)C=C(C)C)c(C)n2C(=O)c1ccc(Cl)cc1
5. CC=CC=CC(=O)OC(C)OC(=O)Cc1c(C)n(C(=O)c2ccc(Cl)cc2)c2ccc(OC)cc12 (stereo not shown)
6. C/C=C/C(=O)OCOC(=O)Cc1ccccc1Nc1c(Cl)cccc1Cl
7. COc1ccc2c(c1)c(CC(=O)OCCOC(C)=O)c(C)n2C(=O)c1ccc(Cl)cc1
8. CC(C)=CC(=O)OC(C)OC(=O)Cc1ccccc1Nc1c(Cl)cccc1Cl (stereo not shown)

Result:
1: 88.9; 2: 4.2; 3: 83; 4: 75.3; 5: 80.4; 6: 89.7; 7: 97.3; 8: 80.3

---

Exercise: state measured metabolised at 1 h for each of the compounds provided.
Assay method text: Rate of hydrolysis in rat plasma
Format: in vitro ADME
Condition details: in 1 ml of plasma rat (37° C., incubation for 1 hr)
Numbers only, in %.

Look over these answered cases.
Compound | metabolised at 1 h / %
CC(C)=CC(=O)OCOC(=O)Cc1ccccc1Nc1c(Cl)cccc1Cl [Compound 14] | 83.4
CC(=O)OCCOC(=O)Cc1ccccc1Nc1c(Cl)cccc1Cl [Compound 16] | 93.7
CC(C)=CC(=O)OCCOC(=O)Cc1ccccc1Nc1c(Cl)cccc1Cl [Compound 17] | 78.4
COc1ccc2c(c1)c(CC(=O)OC(C)OC(=O)C=C(C)C)c(C)n2C(=O)c1ccc(Cl)cc1 (stereo not drawn) [Compound 11] | 85.4
CC=CC=CC(=O)OCOC(=O)Cc1ccccc1Nc1c(Cl)cccc1Cl [Compound 15] | 80.5

Shifting focus to the compound that follows.
Task: Looking for the measured metabolised at 1 h of CCC(=O)OC(C)OC(=O)Cc1c(C)n(C(=O)c2ccc(Cl)cc2)c2ccc(OC)cc12 (stereo not drawn) [Compound 9] , can you help?
Result: 97.3

---

Assay method text: in vivo
Condition details: mouse, po
Binary call on LD50 with cut-off 400 mg/kg: strictly below means true (1), and equality or higher means false (0).

Task: Problem: For the molecule COc1ccc2c(c1)c(CC(=O)OCC(=O)O)c(C)n2C(=O)c1ccc(Cl)cc1 [Acemethacin, acemethacin, reference compound] , is LD50 under 400 mg/kg?
Result: true (1)

Task: Quick check: LD50 of CC(=O)OCCOC(=O)Cc1ccccc1Nc1c(Cl)cccc1Cl under 400 mg/kg?
Result: false (0)

Task: hey, is LD50 for COc1ccc2c(c1)c(CC(=O)OCCOC(=O)C=C(C)C)c(C)n2C(=O)c1ccc(Cl)cc1 lower than 400 mg/kg or not?
Result: true (1)

Task: Quick check: LD50 of CC(C)=CC(=O)OCOC(=O)Cc1ccccc1Nc1c(Cl)cccc1Cl under 400 mg/kg?
Result: false (0)

Task: Does the reported LD50 of C/C=C/C(=O)OC(C)OC(=O)Cc1c(C)n(C(=O)c2ccc(Cl)cc2)c2ccc(OC)cc12 (stereo not shown) stay below 400 mg/kg?
Result: true (1)

---

Assay method text: Rate of hydrolysis in rat plasma
Format: in vitro ADME
Condition details: in 1 ml of plasma rat (37° C., incubation for 1 hr)
Field: metabolised at 1 h. Provide a value for each of the compounds that follow.
Numbers only, in %.

Below: 2 compounds and their reported metabolised at 1 h.
Compound | Measurement unit | metabolised at 1 h
COc1ccc2c(c1)c(CC(=O)OCCOC(=O)C=C(C)CCC=C(C)C)c(C)n2C(=O)c1ccc(Cl)cc1 | % | 60.5
CC(=O)OC(C)OC(=O)Cc1ccccc1Nc1c(Cl)cccc1Cl (stereo not drawn) | % | 96.1

As a next step, examine the compound that follows.
Task: For C/C=C/C(=O)OC(C)OC(=O)Cc1ccccc1Nc1c(Cl)cccc1Cl (stereo not drawn) , what is its reported metabolised at 1 h?
Result: 86

---

Assay method text: in vivo
Condition details: mouse, po
For each record, write down the corresponding log10(LD50).
Log scale reminder: LD50 in mg/kg, then log10 taken.

Recorded log10(LD50), per entry:
Compound | Readout number
CC(C)=CC(=O)OC(C)OC(=O)Cc1ccccc1Nc1c(Cl)cccc1Cl (centres unmarked) | 2.66
CC(C)=CC(=O)OCCOC(=O)Cc1ccccc1Nc1c(Cl)cccc1Cl | 2.60

Quick one: give me log10(LD50) for each item below, same order please.
1. C/C=C/C(=O)OCOC(=O)Cc1c(C)n(C(=O)c2ccc(Cl)cc2)c2ccc(OC)cc12
2. CC=CC=CC(=O)OCOC(=O)Cc1ccccc1Nc1c(Cl)cccc1Cl
3. COc1ccc2c(c1)c(CC(=O)OCOC(=O)C=C(C)C)c(C)n2C(=O)c1ccc(Cl)cc1
4. C/C=C/C(=O)OCCOC(=O)Cc1c(C)n(C(=O)c2ccc(Cl)cc2)c2ccc(OC)cc12
5. COc1ccc2c(c1)c(CC(=O)OCCOC(C)=O)c(C)n2C(=O)c1ccc(Cl)cc1
6. COc1ccc2c(c1)c(CC(=O)O)c(C)n2C(=O)c1ccc(Cl)cc1 [IM, indomethacin, reference compound]

Result:
1. 2.02
2. 2.70
3. 1.83
4. 1.93
5. 1.81
6. 1.50

Cited source for all entries: patent US4603217A
